assay: Total plasma concentration in MK801 stimulated Sprague-Dawley rat hyperlocomotion model at 30 mg/kg, po after 2 hrs; type: ADME, organism-based
Readout name: concentration at 2 h (µM)

[[record]]
input_smiles = "Cc1ccc(C(C)(C)O)cc1-c1ccc2c(n1)n(C)c(=O)n2CC(C)(C)C"
readout_name = "concentration at 2 h"
measured_number = 6.7


----------
assay: Total plasma concentration in PCP stimulated Sprague-Dawley rat hyperlocomotion model at 100 mg/kg, po after 2 hrs; type: ADME, organism-based
Readout name: concentration at 2 h

[[record]]
input_smiles = "Cc1ccc(C(C)(C)O)cc1-c1ccc2c(n1)n(C)c(=O)n2CC(C)(C)C"
readout_name = "concentration at 2 h"
result = "25 µM"


Reference source: ChEMBL document CHEMBL3763140
